experimental-target: T1, Abz-LPETGK(Dnp)-CONH2
T1 chain: LPETGK
Please respond with reported Avg kcat/KM for every item in the list.
Give only the figure.

What does the data say about its Avg kcat/KM? Entry: eSrtA(2A-9) (protein) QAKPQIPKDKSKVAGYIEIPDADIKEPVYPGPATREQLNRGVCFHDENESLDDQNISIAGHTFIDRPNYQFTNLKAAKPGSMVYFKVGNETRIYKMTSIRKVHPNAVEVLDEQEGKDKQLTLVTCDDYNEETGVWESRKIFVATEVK
16.5

Another protein to look at: eSrtA(4S-6) (protein) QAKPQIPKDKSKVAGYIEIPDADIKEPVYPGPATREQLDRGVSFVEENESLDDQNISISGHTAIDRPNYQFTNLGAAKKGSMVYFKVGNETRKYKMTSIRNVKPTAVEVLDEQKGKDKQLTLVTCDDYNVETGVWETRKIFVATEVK
930

Another protein to look at: eSrtA(2A-6) (protein) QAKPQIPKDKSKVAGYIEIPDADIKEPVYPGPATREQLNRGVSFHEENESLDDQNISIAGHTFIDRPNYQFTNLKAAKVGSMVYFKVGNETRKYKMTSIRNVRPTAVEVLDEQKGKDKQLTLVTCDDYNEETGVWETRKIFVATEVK
47.7

Another protein to look at: eSrtA(2A-4) (protein) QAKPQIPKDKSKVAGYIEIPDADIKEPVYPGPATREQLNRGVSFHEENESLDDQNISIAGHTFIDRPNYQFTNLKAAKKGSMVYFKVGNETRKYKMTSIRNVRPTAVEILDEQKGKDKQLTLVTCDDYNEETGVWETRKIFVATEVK
9.69

Another protein to look at: eSrtA(4S-4) (protein) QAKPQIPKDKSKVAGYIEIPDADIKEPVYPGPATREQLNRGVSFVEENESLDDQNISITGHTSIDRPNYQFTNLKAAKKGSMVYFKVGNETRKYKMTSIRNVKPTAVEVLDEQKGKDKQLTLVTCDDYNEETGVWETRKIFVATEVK
219

Another protein to look at: eSrtA(4S-9) (protein) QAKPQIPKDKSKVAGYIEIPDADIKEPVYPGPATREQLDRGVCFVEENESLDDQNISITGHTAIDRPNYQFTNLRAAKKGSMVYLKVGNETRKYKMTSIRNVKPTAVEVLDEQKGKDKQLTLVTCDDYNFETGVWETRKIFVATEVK
706

Another protein to look at: eSrtA(2A-3) (protein) QAKPQIPKDKSKVAGYIEIPDADIREPVYPGPATREQLNRGVSFAEENESLDDQNISIAGHTSIGRPNYQFTNLRAAKKGSMVYFEVGNETRKYKMTSIRNVRPTAVEILDEQKGKDRQLTLFTCDDYNEETGVWETRKIFVATEVK
1270
